Taken from PubChem BioAssay (NCI).

system: 786-0 renal; experiment: NCI tumour cell line growth inhibition, 48 h; in the data active = GI50 below about 0.43 µM; inactive = the rest
Labels: active, inactive

>>> df
                                   compound       cat
0  NC(=O)c1nc(-c2c(F)cccc2Cl)oc1Nc1ccc(C(=O)N2CCOCC2)cc1  inactive
1  CCOC(=O)[C@@H](C)C[C@H](Cc1ccccc1)NC(=O)c1csc([C@@H](C[C@H](C(C)C)N(C)C(=O)CNC(=O)[C@H]2CCCCN2C)OC(C)=O)n1  inactive
2  CN(C)CCCOc1ccc(NC2=C(Cl)C(=O)C(Nc3ccc(OCCCN(C)C)cc3)=C(Cl)C2=O)cc1  inactive
3  COC(=O)c1ccc(NC(N)=NCCC(C)(C)c2ccc(C(F)(F)F)cc2)nc1  inactive
4  COc1ccc([C@@]23Oc4cc(OC)cc(OC)c4[C@]2(O)[C@H](O)[C@H](C(=O)N(C)C)[C@H]3c2ccccc2)cc1    active
5  O=C1Nc2ccc(-c3cccnc3)cc2/C1=C/c1cc(Br)c(O)c(Br)c1  inactive
6  C#COc1cccc(Nc2ncnc3cc(NC(=O)[C@@H](C)Cl)ccc23)c1  inactive
7  CCCCCCCCCCCCCC(=O)O[C@H]1CC[C@H](NC(=O)[C@H](OC)[C@H](O)[C@@H](O)[C@H](O)/C=C/C(C)C)C(=O)N(C)C1    active
8    O=c1[nH]c2ccccc2cc1-c1nnc(Cc2ccccc2)o1  inactive
